- experimentalSystem: IL-17A (agonist in the IL-17RA/IL17RC dimerization assay) (UniProt Q16552 24-155)
- Sequence (Q16552 24-155 limits assumed): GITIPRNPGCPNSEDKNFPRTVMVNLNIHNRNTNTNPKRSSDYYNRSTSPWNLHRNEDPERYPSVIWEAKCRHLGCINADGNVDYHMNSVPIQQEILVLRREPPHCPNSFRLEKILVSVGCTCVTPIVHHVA
- assaySummary: cell-based or functional assay
No end group written: not given here.

{"columns": ["binder", "IC50 in IL-17RA/IL7RC dimerization assay"],
 "data": [
  ["Ac-IHVTAPADLWDWINK-NH2 [peptide of SEQ ID NO: 179]", "< 10 µM"],
  ["Ac-LRISVPADLWDWINK-NH2 [peptide of SEQ ID NO: 240]", "< 10 µM"],
  ["Ac-VMVTIPADLYEWIEERRRRRRRR-NH2 [peptide of SEQ ID NO: 30]", "< 1 µM"],
  ["Ac-IHVTIPADVWDWINK-NH2 [peptide of SEQ ID NO: 204]", "< 10 µM"],
  ["Ac-VPGAGVPGAGIHVTI-NH2 [peptide of SEQ ID NO: 156]", "< 0.5 µM"],
  ["Ac-VMVTIPADLYEWIEEARKKAAKA-NH2 [peptide of SEQ ID NO: 21]", "< 1 µM"],
  ["Ac-VMVTIPADLYEWIEEVPGKG-NH2 [peptide of SEQ ID NO: 26]", "< 1 µM"],
  ["Ac-VHVSIPQELWEWVRR-NH2 [peptide of SEQ ID NO: 230]", "< 10 µM"],
  ["Ac-IHVTIPADAWDWINK-NH2 [peptide of SEQ ID NO: 201]", "< 10 µM"],
  ["Ac-VHFQIPQDLYNFFRR-NH2 [peptide of SEQ ID NO: 153]", "< 0.5 µM"],
  ["Ac-IHGTIPADLWDWINK-NH2 [peptide of SEQ ID NO: 168]", "< 10 µM"],
  ["Ac-IKVTIPADLWDWINK-NH2 [peptide of SEQ ID NO: 163]", "< 10 µM"],
  ["Ac-IEVTIPADLWDWINK-NH2 [peptide of SEQ ID NO: 164]", "< 10 µM"],
  ["Ac-VPGKGVMVTIPADLYEWIEE-NH2 [peptide of SEQ ID NO: 36]", "< 1 µM"],
  ["Ac-VMVTIPADLYEWIEEGGKETWWETW-NH2 [peptide of SEQ ID NO: 25]", "< 1 µM"],
  ["Ac-IHVTIPADPWDWINK-NH2 [peptide of SEQ ID NO: 203]", "< 10 µM"],
  ["Ac-VRFSVPQEIYEWVRR-NH2 [peptide of SEQ ID NO: 251]", "< 10 µM"],
  ["Ac-VMVTIPADLYEWIEEGGTWWTEWSQ-NH2 [peptide of SEQ ID NO: 22]", "< 1 µM"],
  ["Ac-VHVSVPQELWEWVRR-NH2 [peptide of SEQ ID NO: 231]", "< 10 µM"],
  ["Ac-VHVTVPQELFEWVRR-NH2 [peptide of SEQ ID NO: 225]", "< 10 µM"],
  ["Ac-IHVTIPADLFDWINK-NH2 [peptide of SEQ ID NO: 207]", "< 10 µM"],
  ["Ac-VHFQIPQDWWEWVRR-NH2 [peptide of SEQ ID NO: 137]", "< 0.5 µM"],
  ["Ac-IHVTGPADLWDWINK-NH2 [peptide of SEQ ID NO: 180]", "< 10 µM"],
  ["Ac-IHVTIPLEIFEWLQR-NH2 [peptide of SEQ ID NO: 248]", "< 10 µM"],
  ["Ac-VHVYIPAELWEWVRR-NH2 [peptide of SEQ ID NO: 122]", "< 0.5 µM"],
  ["{ascorbic acid}-IMVTIPADLYEWIEE [BIO-5]", "< 1 µM"],
  ["Ac-VMVTIPADLYEWIEERQIKIWFQNRRMKWKK-NH2 [peptide of SEQ ID NO: 28]", "< 1 µM"],
  ["Ac-VHVSVPQELYEWVRR-NH2 [peptide of SEQ ID NO: 232]", "< 10 µM"]
]}

This collection of values is drawn from patent US20220112244A1.
